# test details: clinical
# experimental context: human, in vivo, po, 20 mg

- smiles str: "CCOc1ccc(Cc2cc([C@@H]3S[C@H](CO)[C@@H](O)[C@H](O)[C@H]3O)c(OC)cc2C)cc1"
  AUC(0-inf): "8650 ng·h/mL"

----------
# test details: clinical
# experimental context: human, in vivo, po, 5 mg
observed property: AUC(0-inf) (ng·h/mL)

- smiles str: "CCOc1ccc(Cc2cc([C@@H]3S[C@H](CO)[C@@H](O)[C@H](O)[C@H]3O)c(OC)cc2C)cc1"
  observed result: 2110

----------
# test details: clinical
# experimental context: human, in vivo, po, 400 mg, Tmax
observed property: Tmax (h)

- molecule: "COc1c(N2C[C@@H]3CCCN[C@@H]3C2)c(F)cc2c(=O)c(C(=O)O)cn(C3CC3)c12 [Moxifloxacin, moxifloxacin, reference compound]"
  observed property: "Tmax"
  unit of measurement: "h"
  observed result: 2.2
